// provenance: PubChem BioAssay

- testDetails: 384-well plate pilot, post-Golgi transport modulator project, inhibition of yeast transport mutant growth (AID 636)
- conditions: absorbance 615 nm, about 18 h, stronger effect = higher value
inhibition: recorded values
Note: unit % is implicit; provide only the numeric part.

Some solved entries appear below for comparison.
Cc1ccc(S(=O)(=O)N2CCN(C(=O)N3CCOCC3)C2c2ccc(N(C)C)cc2)cc1 (configuration not stated) : -6.03
Cc1ccc2nc(NC(=O)CN(C)S(=O)(=O)c3cccc4nsnc34)sc2c1 : -4.27

Pending molecule:
IN: Look up and report measured inhibition for this entry: Cn1c(C(=O)OCC(=O)NCC2CCCO2)cc2sccc21 (configuration not stated)
OUT: -9.04

----------
- testDetails: growth inhibitors of H69AR lung tumor, primary screen, human, duplicate replicates (AID 580);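 further: 100% = mean luminescence of untreated wells and 0% = no signal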
- conditions: H69AR lung tumor cells viability, ATP luminescence, 72 h; at 10 µM; stronger effect = lower value
assayMetric: viability (%)
Note: unit % is implicit; provide only the numeric part.

IN: Look up and report measured viability for this entry: CCOC(=O)CSc1nnc(-c2ccc(Cl)cc2Cl)o1
OUT: 101

IN: Look up and report measured viability for this entry: O=C(CN1C(=O)COc2ccccc21)NCCN1CCc2ccccc2C1
OUT: 92.9

IN: Look up and report measured viability for this entry: O=C(NCCN1CCCCC1)c1ccc(=O)oc1
OUT: 99.2

IN: Look up and report measured viability for this entry: N=c1ncn(CC(O)CN2CCOCC2)c2nc(N3CCOCC3)[nH]c12 (stereo unspecified)
OUT: 98.6

IN: Look up and report measured viability for this entry: CC(=O)c1ccc2c3c(cccc13)C(=O)N(c1c(C)nn(C)c1C)C2=O
OUT: 104

IN: Look up and report measured viability for this entry: Cc1cnc(NC(=O)C2=C(O)c3ccccc3S(=O)(=O)N2C)s1
OUT: 89.9

----------
differential viability (reversal): recorded values
- testDetails: reversal of MRP1-mediated doxorubicin resistance, pilot screen, H69AR cells, doxorubicin co-treatment (AID 601)
- conditions: H69AR cells + 2 uM doxorubicin, CellTiter-Glo, 72 h; at 10 µM; stronger effect = higher value
Note: unit % is implicit; provide only the numeric part.

Some solved entries appear below for comparison.
Cc1nc(SCC(=O)NCc2ccco2)c2c(C)c(C)sc2n1 : 15.1
COc1ccc(CCNc2oc(-c3ccccc3OC)nc2C#N)cc1 : 0.34
Cc1ccc(Nc2nnns2)cc1C : 10.1
O=C(c1ccc(F)cc1)C1CCN(CCn2c(=O)[nH]c3ccccc3c2=O)CC1 : 1.93
CCN1CCN(c2nc3c(c(=O)n(C)c(=O)n3C)n2Cc2cccc3ccccc23)CC1 : 3.33
COC(=O)c1cn(-c2ccccc2)nc1C(=O)OC : 10.9
CCCCN(CCCNC(=O)C1CCN(S(=O)(=O)CC)CC1)c1ccccc1 : -1.6
O=C1CCc2cc(OCCCCc3nnnn3C3CCCCC3)ccc2N1 : 13
Cc1nc2scc(-c3ccco3)c2c(=O)n1/N=C/N(C)C : 2.7
COc1ccc(OC)c(NC(=O)CS(=O)(=O)c2ccccc2)c1 : -7.39

IN: Look up and report measured differential viability (reversal) for this entry: Cc1cc(=O)n2[nH]c(-c3ccc(Cl)cc3)cc2n1
OUT: 8.53

IN: Look up and report measured differential viability (reversal) for this entry: CN1CCCC(OC(=O)c2ccc3c(c2)OCCO3)C1 (stereo unspecified)
OUT: 19.1

IN: Look up and report measured differential viability (reversal) for this entry: CCc1n[nH]c2c1C(=O)CC(C)(C)C2
OUT: -1.54

IN: Look up and report measured differential viability (reversal) for this entry: CC(C)NCC(O)COc1ccc(CC(N)=O)cc1 (stereo unspecified)
OUT: -0.64

IN: Look up and report measured differential viability (reversal) for this entry: Nc1nnc(-c2cc3ccccc3oc2=O)s1
OUT: 0.3

IN: Look up and report measured differential viability (reversal) for this entry: O=C(NCc1cccs1)C1CC(c2ccccc2O)=NO1 (stereo unspecified)
OUT: 16.5

IN: Look up and report measured differential viability (reversal) for this entry: Cn1c(SCC(=O)c2ccc(-c3ccccc3)cc2)nnc1-c1ccco1
OUT: -2.98

IN: Look up and report measured differential viability (reversal) for this entry: COc1ccc(C2c3c(oc4ccccc4c3=O)C(=O)N2Cc2ccncc2)cc1OC (stereo unspecified)
OUT: -2.17

IN: Look up and report measured differential viability (reversal) for this entry: Cc1nnc(SC(=O)N2c3ccccc3Sc3ccccc32)s1
OUT: 0.105

----------
- testDetails: 384-well plate pilot, post-Golgi transport modulator project, inhibition of yeast transport mutant growth (AID 636)
- conditions: absorbance 615 nm, about 18 h
Calls of active or inactive are those of the source. Rule as the data show it: active = inhibition above about 31%; inactive = the rest.
Use one of these outcomes when replying: active, inactive

Past entries and their recorded results:
CCOc1ccccc1C1CC(=O)Nc2cc3c(cc21)OCO3 (stereo unspecified) : inactive
O=C(CSc1n[nH]c(=O)[nH]c1=O)c1ccccc1 : inactive
O=S1(=O)C=C(Sc2nc3ccccc3s2)c2ccccc21 : active

IN: Hey, what did the test say about Cn1cccc1Cc1nnc(SCC(=O)N2CCOCC2)n1-c1ccc(F)cc1 ?
OUT: inactive

IN: Hey, what did the test say about CC(c1ccco1)N(Cc1ccco1)C(=O)Nc1ccccc1 (stereo unspecified) ?
OUT: inactive

IN: Hey, what did the test say about CCOC(=O)Nc1ccc(NS(=O)(=O)c2ccc(C)cc2)cc1 ?
OUT: inactive

----------
- testDetails: reversal of MRP1-mediated doxorubicin resistance, pilot screen, H69AR cells, doxorubicin co-treatment (AID 601)
- conditions: H69AR cells, CellTiter-Glo, 72 h; compound alone cytotoxicity; at 10 µM
viability: recorded values
Note: unit % is implicit; provide only the numeric part.

Some solved entries appear below for comparison.
CCOC(=O)c1cnc(C(C)(C)C)[nH]c1=O : 95.8
Cc1nn(Cc2ccccc2Cl)c(C)c1NC(=O)C1C2CCC(O2)C1C(=O)O (stereo not drawn) : 90.9

Pending molecule:
IN: Look up and report measured viability for this entry: COc1ccc(OC)c2[nH]c(=O)c(CCNC(=O)CC(C)C)cc12
OUT: 100

----------
- tgt: Receptor tyrosine-protein kinase erbB-2 (Homo sapiens)
- testDetails: reducers of endogenous Her2 protein level, primary screen, SKBR3 breast tumor cells, AlphaScreen, ATP viability (AID 461);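 further: lower value means less Her2 protein in the cells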
- conditions: 18-24 h, at 10 µM, stronger effect = lower value
assayMetric: Her2 level (%)
Note: unit % is implicit; provide only the numeric part.

Some solved entries appear below for comparison.
COc1cccc(NC(=O)CSc2nnnn2C(C)C)c1 : 86.5
O=C(NCc1cccnc1)c1ccc(Cl)c(Cl)c1 : 75
Clc1ccccc1OCCCCn1ccnc1 : 114

IN: Look up and report measured Her2 level for this entry: Cc1ccc(CNC(=O)C2CC(=O)OC23CCCC3)c(C)c1 (configuration not stated)
OUT: 100

IN: Look up and report measured Her2 level for this entry: CCOc1ccc2c(O)csc2c1
OUT: 116

IN: Look up and report measured Her2 level for this entry: COc1cccc(-n2c(CNc3ccc(F)cc3)nnc2SCC(N)=O)c1
OUT: 82.5

IN: Look up and report measured Her2 level for this entry: Cc1nn(-c2ccccc2)c2c1C(O)n1c(nc3ccccc31)S2 (configuration not stated)
OUT: 77.5

IN: Look up and report measured Her2 level for this entry: CN(CC(=O)Nc1sccc1C#N)C1CCCCC1
OUT: 104

IN: Look up and report measured Her2 level for this entry: CCOC(=O)c1[nH]c(C)c(C(=O)Nc2ccccc2C)c1C
OUT: 85

IN: Look up and report measured Her2 level for this entry: COc1cccc(OC)c1C(=O)N1CCOCC1
OUT: 87.5

IN: Look up and report measured Her2 level for this entry: CC(NC(=O)NCCCC(=O)O)(C(F)(F)F)C(F)(F)F
OUT: 82

IN: Look up and report measured Her2 level for this entry: COc1cc(OC)cc(-c2nc3nc(C)c(CCC(=O)O)c(C)n3n2)c1
OUT: 81.5

----------
- testDetails: SK-BR-3 cell growth inhibitors, pilot screen, 24 h, human (AID 572);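 further: compound exposure lasted between 18 and 24 h rather than exactly 24 h; 100% = carrier-treated control wells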
- conditions: SK-BR-3 viability, CellTiter-Glo luminescence, at 10 µM, stronger effect = lower value
assayMetric: viability (%)
Note: unit % is implicit; provide only the numeric part.

Fc1ccc(-c2nnc(CN3CCN(c4ncc(C(F)(F)F)cc4Cl)CC3)o2)cc1 : 104
NC(=O)c1ccsc1NC(=O)COC(=O)Cc1ccsc1 : 87
CC1CN(CC(O)COc2ccc(C(C)C)cc2)CC(C)O1 (stereo unspecified) : 93

IN: Look up and report measured viability for this entry: Cc1ccc(NC(=O)c2oc3ccc(S(=O)(=O)N4CCOCC4)cc3c2C)cc1C
OUT: 91

IN: Look up and report measured viability for this entry: O=C(Cn1nc(-c2ccc(Cl)cc2)ccc1=O)NCCCN1CCN(Cc2ccccc2)CC1
OUT: 75

IN: Look up and report measured viability for this entry: COc1ccc(OC)c(NC(=O)C2C3CC4OC(=O)C2C4C3)c1 (stereo unspecified)
OUT: 103

IN: Look up and report measured viability for this entry: CCSc1nnc(NC(=O)c2ccccn2)s1
OUT: 92
